Just for reference, the supplement of paper PMC10567573 is where these values come from.

B1: ZNF263 (parent)
chain: HLTRHQRTHTGEKPYKCTLCGENF

Variants of: B1
Run Description: protein stability index of a GFP-peptide fusion (GPS, HEK-293T) (PSI 1-6); higher = more stable;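 further: lentivirally expressed fusions sorted by FACS into six bins by GFP to DsRed ratio, PSI derived from sequencing read proportions per bin multiplied by bin number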
Cond: c terminus: a fixed tail appended
Observable: protein stability index
Give the figure by itself; no unit, no explanation.

1. R7E = 3.98
2. P14A = 2.79
3. H9I = 2.48
4. Q6D = 2.84
5. R4G = 2.38
6. G11Y = 2.17
7. L2M = 3.04
8. E12H = 3.78

Requested field: protein stability index. Item: `T18F`
2.56
